B1: glmS ribozyme (parent)
chain: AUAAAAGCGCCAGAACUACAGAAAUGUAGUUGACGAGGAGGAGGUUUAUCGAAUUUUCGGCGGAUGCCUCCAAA

- Variants of: B1
- Assay Protocol: self-cleavage kobs at 2500 uM GlcN6P; higher = faster cleavage; RNA array
- Experimental Conditions: with glucosamine-6-phosphate
Variants at the floor of the assay were thinned out.

- Residue Codes: "AUAAAAGCGCCAGAACUACAGAAAUGUAGUCGACGAGGAGGUGAUUUAUCGAAUUUUCGGCGGAUGCCUCCAAA [U31C A42U G44A]"
  Units Of Measure: "s⁻¹"
  Qual: "<"
  self-cleavage kobs at 2500 uM GlcN6P: "1e-05"
- Residue Codes: "AUAAAAGCGCCAGAACUACAGAAAUGUAGUCGACGAGGAGGAGGUUUAUCGAAUGUUCGGCGGAUGCCUCCAAA [U31C U55G]"
  Units Of Measure: "s⁻¹"
  Qual: "="
  self-cleavage kobs at 2500 uM GlcN6P: 0.0022
- Residue Codes: "AUAAAAGCGCCAGAACUACAGAAAUGUAGUUGACGAAGAGGAGGUUUAUCGAAGUUUCGGCGGAUGCCUCCAAA [G37A U54G]"
  Units Of Measure: "s⁻¹"
  Qual: "="
  self-cleavage kobs at 2500 uM GlcN6P: 0.000936
- Residue Codes: "AUAAAAGCGCCAGAACUACAGAAAUGUAGUUGACGAGGAGGAGGUUUAGCGAAUUUUCGGCGGAUGCUUCCAAA [U49G C68U]"
  Units Of Measure: "s⁻¹"
  Qual: "="
  self-cleavage kobs at 2500 uM GlcN6P: "9.44e-05"
- Residue Codes: "AUAAAGGCGCCAGAACUACAGAAAUGUAGUUGACGAGGAGGAGGUGUAUCGAAUUUUCGGCGGAUGCUUCCAAA [A6G U46G C68U]"
  Units Of Measure: "s⁻¹"
  Qual: "="
  self-cleavage kobs at 2500 uM GlcN6P: "4.82e-05"
- Residue Codes: "AUAAAAGCGCCAGAACUACAGAAAUGUAGUUGACGAGGAGGAGGUUUAUCGAAUUUUCGGCGGAAGCCUACAAA [U65A C70A]"
  Units Of Measure: "s⁻¹"
  Qual: "="
  self-cleavage kobs at 2500 uM GlcN6P: "6.44e-05"
- Residue Codes: "AUAAAAGCGCCAGAACUACAGAAAUGUAGUUGACCAGGAGGUGGUUUCUCGAAUUUUCGGCGUAUGCCUCCAAA [G35C A42U A48C G63U]"
  Units Of Measure: "s⁻¹"
  Qual: "<"
  self-cleavage kobs at 2500 uM GlcN6P: "1e-05"
- Residue Codes: "AUAAAAGCGCCGGAACUACAGAAAUGUAGUUGACGAGGAUGAGGUAUAUCGAAUUUUUGGCGGAUGCCUCCAAA [A12G G40U U46A C58U]"
  Units Of Measure: "s⁻¹"
  Qual: "<"
  self-cleavage kobs at 2500 uM GlcN6P: "1e-05"
- Residue Codes: "AUAAAAGCGCCGGAACUACAGAAAUGUAGUUGACGAGGAGGAGGUUUAUGGAAUUUUCGGCGGAUGCCUCGAAA [A12G C50G C71G]"
  Units Of Measure: "s⁻¹"
  Qual: "="
  self-cleavage kobs at 2500 uM GlcN6P: 0.000636
- Residue Codes: "AUAAAAGCGCCAGAACUACAGAAAUGUAGGUGACGAGGAGGAGGUUUAUCGAAUUUUCGGCGGAUGCCGCCAAA [U30G U69G]"
  Units Of Measure: "s⁻¹"
  Qual: "="
  self-cleavage kobs at 2500 uM GlcN6P: "3.55e-05"
- Residue Codes: "AUAAAAGCGCUAGAACUACAGAAAUGUAGUUGACGAGGAGGAGGUUUAUAGAAUUUUCGGCGGAUGCCUGCAAA [C11U C50A C70G]"
  Units Of Measure: "s⁻¹"
  Qual: "="
  self-cleavage kobs at 2500 uM GlcN6P: 0.000173
- Residue Codes: "AUAAAAGCGCUAGAACUACAGAAAUGUAGUUGACGAAGAGGAGGUUUAUCGAAUUUUCGGCGGAUGCCUCCAAA [C11U G37A]"
  Units Of Measure: "s⁻¹"
  Qual: "="
  self-cleavage kobs at 2500 uM GlcN6P: "5.51e-05"
- Residue Codes: "AUAAAAGCGUCAGAACUACAGAAAUGUAGUUGACGAGGAUGAGGUUUAUCGAAUUUUAGGCGGAUGCCUCCAAA [C10U G40U C58A]"
  Units Of Measure: "s⁻¹"
  Qual: "<"
  self-cleavage kobs at 2500 uM GlcN6P: "1e-05"
- Residue Codes: "AUAAAAACGCCAGAACUACAGAAAUGUAGUUGAAGAGGAGGAAGUUUAUCGAAUUUUCGGCGGAUUCCGCCAAA [G7A C34A G43A G66U U69G]"
  Units Of Measure: "s⁻¹"
  Qual: "<"
  self-cleavage kobs at 2500 uM GlcN6P: "1e-05"
- Residue Codes: "AUAAAAGCGCCAGAACUACAGAAAUGUAGUUGACGAGGAGAAGGUUUAUCGAUGUUUCGGCGGAUGCCUCCAAA [G41A A53U U54G]"
  Units Of Measure: "s⁻¹"
  Qual: "="
  self-cleavage kobs at 2500 uM GlcN6P: 0.000742
- Residue Codes: "AUAAAAGCGACAGAACUACAGAAAUGUAGUUGACGAGGAGCAGGUGUAUCGAAUUUUCGGCGGAUGCUUCCAAA [C10A G41C U46G C68U]"
  Units Of Measure: "s⁻¹"
  Qual: "<"
  self-cleavage kobs at 2500 uM GlcN6P: "1e-05"

Data origin: the supplement of paper PMC7125110
